assayed target: T1, human serum albumin (human, UniProt P02768 25-609)
T1 construct: Bought serum albumin; also called HSA; antigen
protocol: SPR (Biacore), ratio of the off rates at the two pH
measure name: Ratio pH 7/pH 5 (of kd)
Lab note: jot down the number only; don't add units.

*Q* Can you look up the measured Ratio pH 7/pH 5 (of kd) of Nanobody 4B5 (VHH) VHH: EVQLVESGGGLVQAGDSLRLSCAASGRTYSRNAMAWFRQAPGKEREFVAGIDWSSENTRYIDSVKGRFTISRDNAKSTMYLQMNSLKPEDTAVYYCAAGTSWGALASRLEAAYSSWGQGTQVTVSS for me?
*A* 2.32

*Q* Okay, and Nanobody 4C4 (VHH) VHH: EVQLVESGGGLVQAGDSLRLSCAASGRPFMSYVMGWFRRAPGKEREFVGGINWGSGNTWYTDSVLGRFTISRDNAKNTVYLQMNSLKPEDTAVYYCATAAGVGYYRYERQYDYWGQGTQVTVSS ?
*A* 2.42

*Q* Moving on to the next binder: Nanobody 4C11 (VHH) VHH: EVQLVESGGGLVQAGGSLRLSCAASGLSFSRYAMGWFRQAPGKQREYVAVISSSDTTYYTNSAKGRFTISRDNAENTVYLQMNSLKPEDTAVYFCAADSFVTALQTLTQINYWGQGTQVTVSS
*A* 1.19

*Q* Same thing, different binder: Nanobody 4D5 (VHH) VHH: EVQLVESGGGLVQAGGSLRLSCAASGLSFSKYAMGWFRQAPGKQREYVAVISSSDTTYYTNSAKGRFTISRDNAENTVYLQMNSLKPEDTAVYFCAADSYVTALQTLTQISYWGQGTQVTVSS
*A* 1.29

# credit: patent US20100216187A1
